# Tested on: MCF7 breast
# procedure.summary: NCI-60 one-dose screen, 48 h (100 = growth as untreated, 0 = no growth, -100 = all killed)
# condition.summary: 10 µM unless noted
Compounds without any hit were thinned out: in the full panel of roughly 83,000, 20% have a hit.
Returns 1.0 if the recorded growth is greater than or equal to 10%, and 0.0 otherwise.

* Cc1ccc2c(c1)/C(=N\N=C/c1cn(C(C)C)c3ccccc13)C(=O)N2 | 0.0

Does the reported growth for ClC1=C(Cl)C(Cl)=C(Cl)C1=Cc1ccccc1 fall at or above the 10% mark?
0.0

What do we get for COc1ccc(NCc2cn(-c3ccc(C(=O)O)cc3)nc2-c2ccc(C(=O)O)cc2)cc1C(F)(F)F ?
1.0

Consider next the compound N#Cc1c(N2CCOCC2)nc(=S)[nH]c1-c1ccco1 in the same way.
1.0

Same read-out for Cc1ccc(N)c(O)c1 ?
1.0

// next record CCC(Br)(CC)C(=O)c1ccc(OCC(=O)O)c(Cl)c1Cl
1.0

Entry Cc1cccc(C[C@H](NC(=O)Nc2ccc(Cl)cc2F)C(=O)N[C@@H]2C(=O)N3C[C@H](OC(=O)CCN(C)C)C[C@H]3C(=O)N3CCCC[C@H]3C(=O)N[C@@H](C)C(=O)N3C[C@H](C)C[C@H]3C(=O)O[C@H]2C)c1 please
1.0

Now the same for CC1=CCc2ccccc21
1.0

// query: O=C(NCCCNC(=O)OCc1ccc2c(Br)cc(Br)c(O)c2n1)OCc1ccc2c(Br)cc(Br)c(O)c2n1
0.0

====

Property: growth; scope: individual molecules
# System: CAKI-1 renal
# procedure.summary: NCI-60 one-dose screen, 48 h (100 = growth as untreated, 0 = no growth, -100 = all killed)
# condition.summary: 10 µM unless noted
About 83,000 compounds went through this panel and 20% of them were active in at least one assay; those are over-represented in the sample as a whole.
Quick note: give the figure in %, leave out the unit.

Look up growth: COC(=O)c1cc(O)c2c(c1C(=O)OC)C[C@H]1[C@@H]3CC=C4C[C@@H](O)CC[C@]4(C)[C@H]3CC[C@]21C
26.2

Then what about the molecule O=[N+]([O-])c1cc([N+](=O)[O-])c(NN=C(c2ccc(O)cc2)c2ccc(O)cc2)cc1Cl ?
42.3

Now consider Cc1cccc(/C=C2\N=C(c3ccccc3)N(c3ccc(S(N)(=O)=O)cc3)C2=O)c1 and answer again.
86.2

Thanks! And Cc1cc2c(C(C)C)c(O)c(O)c(C=NCc3ccoc3)c2c(O)c1-c1c(C)cc2c(C(C)C)c(O)c(O)c(C=NCc3ccco3)c2c1O ?
54

Then what about the molecule CC(=O)Nc1ccc(C=Nc2ccc3ccccc3c2)cc1 ?
47.4

====

# Tested on: T-47D breast
# procedure.summary: NCI-60 one-dose screen, 48 h (100 = growth as untreated, 0 = no growth, -100 = all killed)
# condition.summary: 10 µM unless noted
About 83,000 compounds went through this panel and 20% of them were active in at least one assay; those are over-represented in the sample as a whole.
growth reference
Give the number; % is assumed, so skip it.

Look at this molecule and give its reported growth. CCc1ccc(C2=C/C(=C/c3ccccc3)C(=O)N2CCc2ccc(S(N)(=O)=O)cc2)cc1
97.8

And then CCN(CC)c1ccc2cc(C(Nc3ccc(Br)c(C(F)(F)F)c3)c3nnnn3C(C)(C)C)c(=O)oc2c1 (stereo not given) , what is it?
64.2

Param item: c1ccc(-c2n[nH]c(-c3ccccn3)n2)nc1
95.8

Entry O=C(Nc1ccc(F)cc1)c1ccccc1 please
104

Moving on to the next molecule: COc1ccc(C=C2c3ccccc3-c3ccccc32)cc1
46.6

Likewise for O=C(C[n+]1ccn(CC(OCc2ccc(Cl)cc2Cl)c2ccc(Cl)cc2Cl)c1)c1ccc(F)cc1 (stereo not given) ?
-71.6

Please do the same for Nn1c(Nc2ccc(S(=O)(=O)Nc3ncccn3)cc2)nnc(/C=C/c2c(O)ccc3ccccc23)c1=O as well.
70.9

Okay, and Cc1ccc2c(c1)/C(=N\N=C/c1cn(C(C)C)c3ccccc13)C(=O)N2 ?
24.9

Now consider CC1=CCc2ccccc21 and answer again.
96.8

Same thing, different molecule: CSc1nc(N)c(N=Nc2ccc(S(=O)(=O)Nc3nnc(C)s3)cc2)c(=O)[nH]1
112
